FYI, the data here is from PubChem BioAssay (NCI).

tested on: MDA-MB-435 melanoma; test: NCI-60 one-dose screen, 48 h; details: 10 µM unless noted
About 83,000 compounds went through this panel and 20% of them were active in at least one assay; those are over-represented in the sample as a whole. Calls of active or inactive are those of the source. The calls were made as follows: active = growth percent below 10; inactive = the rest.
Outcome field: choose from y (active), n (inactive)

CC1OC(n2c3ccccc3c3c4c(c5c6ccccc6[nH]c5c32)C(=O)N(CCN2CCOCC2)C4=O)CC(O)C1O (stereo not given)	n
N/C(=N\OC(=O)c1ccccc1)C(Cc1ccccc1)C(=O)NOC(=O)c1ccccc1 (stereo not given)	y
COc1cc(NCCC2CCCCN2)c2ncccc2c1OC (stereo not given)	y
COc1cc(/C=C\c2cc(/C=C\c3ccc(O)c(OC)c3)n(C(=O)Nc3ccc(C(F)(F)F)cc3)n2)ccc1O	n

What is the recorded call for this compound in the test? "COc1ccc(-c2cnnn2-c2nonc2-n2cccc2)cc1"
y

---

test system: 786-0 renal; experiment: NCI-60 one-dose screen, 48 h; conditions: 10 µM unless noted
This is part of a sample that, as a whole, favours compounds with a hit. Of some 83,000 tested, about 20% had one in any assay. The source made the active and inactive calls. How the source made its calls: active means growth percent below 10; inactive means the rest.
Outcome field: choose from true (1) = active, false (0) = inactive

Past entries and their recorded results:
CC(C)c1cccc(C#N)c1	false (0)
C#C[C@]1(O)CC[C@H]2[C@@H]3CC=C4c5sc(-c6cccc(Br)c6)nc5CC[C@]4(C)[C@H]3CC[C@@]21C	false (0)
CC1(C)CC(=O)c2cc3c(N)c(C(=O)Nc4ccc(Cl)cc4)sc3nc2C1	false (0)
Cc1cc(C#Cc2ccc(C(C)(C)C)cc2)ccc1-n1c(/C=C/c2c(Cl)cccc2Cl)nc2ccccc2c1=O	false (0)
COc1ccc(/C=C(\C#N)c2cc(OC)c(OC)c(OC)c2)cc1	false (0)
OC(COCc1ccccc1)COCc1ccccc1	false (0)

What is the recorded call for this compound in the test? "CCN(CC)c1ccc(/C=C2/NC(=O)NC2=O)cc1"
false (0)

What is the recorded call for this compound in the test? "NNC(=O)CSc1nc2scc(-c3ccccc3)c2c(=O)n1-c1ccccc1"
false (0)

What is the recorded call for this compound in the test? "O=C1Nc2ccc(Cl)cc2/C1=C\c1c(-c2ccc(F)cc2)nc2ccccn12"
false (0)

What is the recorded call for this compound in the test? "c1cn2cc(-c3ccc4ncn(C5CCCCC5)c4c3)nc(-c3ccc4c(c3)ncn4C3CCCCC3)c2n1"
true (1)

---

tested on: MDA-MB-435 melanoma; experiment: NCI-60 one-dose screen, 48 h; conditions: 10 µM unless noted
The panel holds about 83,000 compounds, 20% with a hit somewhere; the sample as a whole holds those more often. The source made the active and inactive calls. The calls were made as follows: active = growth percent below 10; inactive = the rest.
Outcome field: choose from active, inactive

Past entries and their recorded results:
COc1ccc(C2NC(=O)c3cc4c(cc3N2)OCO4)cc1 (configuration not stated)	active
CCn1c(Cc2ccccc2Nc2c(Cl)cccc2Cl)nnc1SCC(=O)Nc1cccc(OC)c1	inactive
CCCCc1nc(Cl)c(C2CC(c3ccc(S(N)(=O)=O)cc3)=NN2c2cc(Cl)cc(Cl)c2)[nH]1 (configuration not stated)	inactive
COc1ccc(C(=O)OC2C(OC3C(O)COC(O[C@H]4C[C@H]5[C@@H]6CC=C7C[C@@H](O)CC[C@]7(C)[C@H]6CC[C@]5(C)[C@H]4[C@H](C)C(=O)CCC(C)C)C3OC(C)=O)OCC(O)C2O)cc1 (some centres not stated)	active
S=C(Nc1ccc(Cl)cc1)Nc1ccc(Cl)cc1 (tested in a mixture with another compound)	active

What is the recorded call for this molecule in the test? "O=C(CCl)Nc1ccc2c(c1)C(=O)c1ccccc1C2=O"
inactive

What is the recorded call for this molecule in the test? "CN(C)CCCN1c2ccccc2CCc2ccccc21"
inactive

What is the recorded call for this molecule in the test? "c1csc(-c2cnc3nonc3n2)c1"
inactive

What is the recorded call for this molecule in the test? C=C1C[C@@]2(C)C(CC[C@]3(C)C2CC=C2C4CC(C)(C)C[C@@H](OC(=O)/C(C)=C\C)[C@]4(C(=O)O)CC[C@]23C)C(C)(C)C1=O (some centres not stated)
active

What is the recorded call for this molecule in the test? "CCN(CC)c1ccc2c(cc1=O)[C@@H](NC(C)=O)CCc1cc(OC)c(OC)c(OC)c1-2"
active

What is the recorded call for this molecule in the test? "COc1ccc2nc3cc(Cl)ccc3c(NC(=O)CSc3ccc(Cl)cc3)c2c1"
active

What is the recorded call for this molecule in the test? "CC(C)c1cccc(C#N)c1"
inactive

What is the recorded call for this molecule in the test? "COc1ccc(-c2conc2-n2nc(-c3ccccc3)nc2-c2ccccc2)cc1"
inactive

What is the recorded call for this molecule in the test? COc1cc2c(cc1OC)-c1cc(OC)c(OC)cc1C(CN(C)C)C2 (configuration not stated)
inactive

What is the recorded call for this molecule in the test? C=CCN1C(=O)/C(=c2\sc3n(c2=O)C2C(NN=3)N(CC)C(=O)N2CC)c2ccccc21 (configuration not stated)
active

What is the recorded call for this molecule in the test? "O=C(N/N=C/c1ccc([N+](=O)[O-])o1)c1ccc(O)cc1"
active

What is the recorded call for this molecule in the test? CO[C@H](C(=O)[C@@H](O)[C@@H](C)O)[C@@H]1Cc2cc3cc(O[C@H]4C[C@@H](O[C@H]5C[C@@H](O)[C@H](O)C(C)O5)[C@H](O)C(C)O4)c(C)c(O)c3c(O)c2C(=O)[C@H]1O[C@H]1C[C@@H](O[C@H]2C[C@@H](O[C@H]3C[C@](C)(O)C(=O)C(C)O3)[C@@H](O)C(C)O2)[C@H](O)C(C)O1 (some centres not stated)
active
